Exercise: for every item that follows, state its recorded pKi.
biological target: human GlyT1c transporter (Homo sapiens); construct: expressed in transfected cells; host or cells: CHO cells (recombinant; line hGlyT1c_5_CHO is named for the uptake assay); test: Radioligand binding assay using recombinant CHO cell membranes expressing human GlyT1; conditions: radioligand binding to human GlyT1c transporter-expressing membranes
Sequence (P48067 whole entry): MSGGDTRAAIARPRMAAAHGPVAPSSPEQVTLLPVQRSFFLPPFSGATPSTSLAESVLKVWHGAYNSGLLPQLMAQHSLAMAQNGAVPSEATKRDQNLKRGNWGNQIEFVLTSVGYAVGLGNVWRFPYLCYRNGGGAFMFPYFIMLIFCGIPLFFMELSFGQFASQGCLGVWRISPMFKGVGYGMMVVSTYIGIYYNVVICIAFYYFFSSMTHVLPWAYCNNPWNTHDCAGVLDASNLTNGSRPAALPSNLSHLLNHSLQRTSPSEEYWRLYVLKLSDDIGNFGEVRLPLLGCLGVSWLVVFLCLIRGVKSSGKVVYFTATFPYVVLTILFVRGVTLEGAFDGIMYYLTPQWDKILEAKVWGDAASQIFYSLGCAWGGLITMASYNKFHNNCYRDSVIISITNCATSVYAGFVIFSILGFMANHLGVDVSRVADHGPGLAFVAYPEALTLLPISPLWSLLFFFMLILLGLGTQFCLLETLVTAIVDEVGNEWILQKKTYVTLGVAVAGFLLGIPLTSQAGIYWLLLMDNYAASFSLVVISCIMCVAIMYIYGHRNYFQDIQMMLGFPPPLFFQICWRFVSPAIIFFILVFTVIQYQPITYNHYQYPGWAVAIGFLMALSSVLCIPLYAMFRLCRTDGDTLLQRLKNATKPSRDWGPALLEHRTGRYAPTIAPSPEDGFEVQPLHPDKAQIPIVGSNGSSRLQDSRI
pKi: −log10 of the molar value.

| COMPOUND | MEASUREMENT_KIND | RECORDED_MEASUREMENT |
| --- | --- | --- |
| Cn1cnc(S(=O)(=O)N2C[C@@H](Nc3cccc(C(F)(F)F)c3)[C@H](c3ccccc3)C2)c1 (relative stereo) | pKi | ≥ 8.00 |
| Cn1cnc(S(=O)(=O)N2C[C@@H](Nc3cccc(OC(F)(F)F)c3)[C@H](c3ncccc3F)C2)c1 (relative stereo) | pKi | ≥ 7.00 |
| Cn1cnc(S(=O)(=O)N2C[C@@H](Nc3ccccn3)[C@H](c3ccc(F)cc3)C2)c1 (relative stereo) | pKi | ≥ 6.00 |
| Cn1cnc(S(=O)(=O)N2C[C@@H](NC(=O)C3(C(F)(F)F)CC3)[C@H](c3ccccn3)C2)c1 (relative stereo) | pKi | ≤ 5.00 |
| Cn1cnc(S(=O)(=O)N2C[C@@H](C(=O)Nc3ccc(F)cc3)[C@H](c3ccc(F)cc3)C2)c1 (relative stereo) | pKi | ≥ 7.00 |

Fill in: pKi on human GlyT1c transporter (Homo sapiens), entry Cn1cnc(S(=O)(=O)N2C[C@H](Nc3ccc(Cl)c(C(F)(F)F)c3)[C@@H](c3cocn3)C2)c1
≥ 6.00
